- measuredTarget: Proteasome subunit beta (Trypanosoma cruzi) (UniProt O96673)
- Sequence (O96673 as listed by the source): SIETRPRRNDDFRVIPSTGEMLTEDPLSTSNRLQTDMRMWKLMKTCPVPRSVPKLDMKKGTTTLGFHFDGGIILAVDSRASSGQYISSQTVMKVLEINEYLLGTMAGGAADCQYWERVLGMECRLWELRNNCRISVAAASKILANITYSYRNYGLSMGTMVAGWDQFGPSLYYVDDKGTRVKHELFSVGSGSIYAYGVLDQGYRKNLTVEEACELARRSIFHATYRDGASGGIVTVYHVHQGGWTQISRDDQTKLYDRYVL
- assayMethodText: Trypanosoma cruzi proteasome chymotrypsin-like activity (TcProtChymo) assay.
- Format: functional
- Set-up: scale not given: in the data most compounds retested in dose-response had high values
- cond: 9.37 µM
property: Percent Effect (%)

1. N#Cc1cnn(-c2ccc(C(=O)Nc3ccccn3)cc2)c1N: 19.7
2. O=C(Cc1ccsc1)N1CCC(n2nc(-c3ccco3)ccc2=O)CC1: 13.9
3. CSCC[C@H](N)C(=O)NCc1cc2n(n1)CCCN(C1CCCCC1)C2: 13.7
4. Cc1ncc(CNC(=O)CCOc2ccccc2)c(C2CCCN2C)n1 (configuration not stated): 6.08
5. O=C(NCCC(=O)N1CCCCCC1)c1c(O)cc(F)cc1F: 9.78
6. O=C(NCCn1ccnc1)c1cccc(F)c1: 9.56
7. CC(c1nc(C2CC2)no1)N1CCN(CCOCC(F)(F)F)CC1 (configuration not stated): 1.08
8. O=C(NC1CC1)[C@H]1C[C@H]2OCC[C@H]2N(CC2CCOCC2)C1: 7.18
9. Cc1occc1C(=O)Nc1ccnc(OC2CCOC2)c1 (configuration not stated): 14.7
10. CCc1nc(CC(=O)N2CCn3c(nnc3C(F)(F)F)C2)cs1: 3.17
11. c1ncn(CC2CCCCN2Cc2noc(C3CC3)n2)n1 (configuration not stated): 16.4
12. O=C(NC1CCS(=O)(=O)C1)c1sccc1-c1ccc(F)cc1 (configuration not stated): 8.15
13. CCn1nc(C)c2nc(C(C)C)nc(NCCCO)c21: 12.6
14. Cc1cnn(C2CN(CC(O)c3ccc4c(c3)OCCO4)C2)c1 (configuration not stated): 7.5
15. Cc1ccc(C(NC(=O)CC2CCN(C(C)C)CC2)C(=O)O)cc1 (configuration not stated): 1.55
16. Cc1ncsc1CN1C[C@@H](OCC2CC2)[C@H]2OCCC[C@H]21: 24.3
17. COc1cc(N2CC[C@H](O)[C@@H]2Cc2cnn(C)c2)ncn1: 19.2
